# System: NCI-H226 lung
# Assay details: NCI-60 one-dose screen, 48 h (100 = growth as untreated, 0 = no growth, -100 = all killed)
# Condition set: 10 µM unless noted
About 83,000 compounds went through this panel and 20% of them were active in at least one assay; those are over-represented in the sample as a whole.
Overview of reported growth across a group of compounds:
Endpoint: growth (%)

Compound | Measurement
COc1cc2ncn3c(=O)c4c5c(sc4nc3c2cc1OC)CCCC5 | 93.8
Cc1cc(C(=O)c2ccccc2)c(C)c2c1[nH]c1ccc(Cl)cc12 | 50.6
CCCCCCCC/C=C\CCCCCCCCOc1ccccc1CC(=O)NCC[N+](C)(C)C | 52.3
CC/C=C/C/C=C/C/C=C/C/C=C/C/C=C/C/C=C/CCC(=O)Nc1ccn([C@@H]2O[C@H](CO)[C@@H](O)C2(F)F)c(=O)n1 | 8.09
COc1ccc(C2c3ccc4ccccc4c3Oc3nc(C)[nH]c(=O)c32)cc1 (stereo not given) | 92.4
